inhibition at 0.1 µM reference
target.system: Androgen Receptor (AR) protein (Homo sapiens, UniProt P10275, T878A)
Construct: endogenous in cells; host or cells: LNCaP
Sequence (P10275 whole entry T878A): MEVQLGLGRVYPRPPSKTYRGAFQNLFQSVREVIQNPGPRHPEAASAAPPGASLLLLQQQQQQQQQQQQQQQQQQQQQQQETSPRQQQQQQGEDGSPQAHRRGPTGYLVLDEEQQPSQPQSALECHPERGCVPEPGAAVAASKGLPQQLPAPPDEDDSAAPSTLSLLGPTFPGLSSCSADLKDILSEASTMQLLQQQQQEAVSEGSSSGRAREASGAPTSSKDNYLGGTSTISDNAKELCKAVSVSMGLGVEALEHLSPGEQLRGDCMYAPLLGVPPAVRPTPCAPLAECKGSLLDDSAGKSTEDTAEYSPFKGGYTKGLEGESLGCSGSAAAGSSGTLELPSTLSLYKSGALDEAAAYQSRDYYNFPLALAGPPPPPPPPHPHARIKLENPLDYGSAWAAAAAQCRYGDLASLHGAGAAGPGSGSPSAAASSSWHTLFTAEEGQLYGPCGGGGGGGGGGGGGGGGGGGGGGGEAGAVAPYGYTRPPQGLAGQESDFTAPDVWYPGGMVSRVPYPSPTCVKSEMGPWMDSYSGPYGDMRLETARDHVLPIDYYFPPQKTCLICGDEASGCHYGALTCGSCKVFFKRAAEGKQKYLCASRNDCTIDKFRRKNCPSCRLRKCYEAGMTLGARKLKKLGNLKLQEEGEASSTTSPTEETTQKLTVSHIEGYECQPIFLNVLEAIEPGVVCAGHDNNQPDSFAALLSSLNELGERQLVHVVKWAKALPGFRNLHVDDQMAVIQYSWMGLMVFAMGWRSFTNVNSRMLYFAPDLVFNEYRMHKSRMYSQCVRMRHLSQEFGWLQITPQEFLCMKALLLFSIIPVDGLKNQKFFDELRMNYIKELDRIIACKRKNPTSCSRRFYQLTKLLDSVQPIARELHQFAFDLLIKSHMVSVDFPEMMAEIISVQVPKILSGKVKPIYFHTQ
Sequence (Q96SW2 whole entry partner): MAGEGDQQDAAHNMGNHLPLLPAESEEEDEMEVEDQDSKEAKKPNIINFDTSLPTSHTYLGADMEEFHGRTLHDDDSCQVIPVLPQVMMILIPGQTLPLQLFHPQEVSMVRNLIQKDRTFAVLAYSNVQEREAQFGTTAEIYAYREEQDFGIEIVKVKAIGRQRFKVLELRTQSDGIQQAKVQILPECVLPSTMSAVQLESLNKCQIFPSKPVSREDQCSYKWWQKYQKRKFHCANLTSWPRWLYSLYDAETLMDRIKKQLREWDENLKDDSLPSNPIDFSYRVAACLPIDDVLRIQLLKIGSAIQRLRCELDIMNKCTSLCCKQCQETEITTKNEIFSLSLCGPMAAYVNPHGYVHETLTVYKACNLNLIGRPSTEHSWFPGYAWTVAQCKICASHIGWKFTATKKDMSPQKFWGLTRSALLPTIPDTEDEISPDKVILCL
run.description: Androgen Receptor (AR) protein degradation assay in LNCaP cells, western blotting
Assay type: cell-based
measurement.context: 20 h, 0.1 μM compound
Description: Experimental Example 1: Androgen Receptor (AR) Protein Degradation Assay After treating LNCaP cells with the synthesized Example compound, the amount of AR protein present in the cells was measured. The amount of AR protein was measured using western blotting detection method. […] [Protein quantification] […] Then, absorbance was measured at a wavelength of 562 nm. The unknown protein concentration was measured using a BSA standard curve (0, 0.125, 0.25, 0.5, 1, 2 mg/ml). […]

- compound: "N#Cc1ccc(N2CCC(C(=O)Nc3ccc(OCC4CCN(CC5CN(c6ccc7c(c6)C(=O)N(C6CCC(=O)NC6=O)C7=O)C5)CC4)cn3)CC2)cc1C(F)(F)F (stereo not drawn) [Example 183]"
  reading.unit: "%"
  inhibition at 0.1 µM: 87
- compound: "N#Cc1ccc(N2CCC(C(=O)Nc3ccc(N4CCC(CN5CC(N6CCN(c7ccc8c(c7)C(=O)N(C7CCC(=O)NC7=O)C8=O)CC6)C5)CC4)cn3)CC2)cc1C(F)(F)F (stereo not drawn) [Example 77]"
  reading.unit: "%"
  inhibition at 0.1 µM: 96
- compound: "N#Cc1ccc(N2CCC(C(=O)Nc3ccc(N4CCC(CN5CCN(CCOc6ccc7c(c6)C(=O)N(C6CCC(=O)NC6=O)C7=O)CC5)CC4)cn3)CC2)cc1C(F)(F)F (stereo not drawn) [Example 3]"
  reading.unit: "%"
  inhibition at 0.1 µM: 98
- compound: "N#Cc1ccc(N2CCC(C(=O)Nc3cnc(N4CCC(CN5CC6(CCN(c7ccc8c(c7)C(=O)N(C7CCC(=O)NC7=O)C8=O)CC6)C5)CC4)cn3)CC2)cc1C(F)(F)F (stereo not drawn) [Example 155]"
  reading.unit: "%"
  inhibition at 0.1 µM: 89
- compound: "N#Cc1ccc(N2CCC(C(=O)Nc3ccc(N4CCC(O)(CCN5CCN(c6ccc7c(c6)C(=O)N(C6CCC(=O)NC6=O)C7=O)CC5)CC4)cn3)CC2)cc1C(F)(F)F (stereo not drawn) [Example 153]"
  reading.unit: "%"
  inhibition at 0.1 µM: 95
- compound: "N#Cc1ccc(N2CCC(O)(C(=O)Nc3ccc(N4CCC(CN5CC6(CCN(c7ccc8c(c7)C(=O)N(C7CCC(=O)NC7=O)C8=O)CC6)C5)CC4)cn3)CC2)cc1C(F)(F)F (stereo not drawn) [Example 55]"
  reading.unit: "%"
  inhibition at 0.1 µM: 69

###

target.system: Androgen Receptor (AR) protein (Homo sapiens, UniProt P10275, T878A)
Construct: endogenous in cells; host or cells: LNCaP
run.description: Androgen Receptor (AR) protein degradation assay in LNCaP cells, western blotting
Format: cell-based
measurement.context: 20 h, 1 μM compound
measurement.label: inhibition at 1 µM

- compound: "N#Cc1ccc(N2CCC(C(=O)Nc3ccc(N4CCC(CN5CCN(C[C@@H]6CCN(c7cc8c(cc7F)C(=O)N(C7CCC(=O)NC7=O)C8=O)C6)CC5)CC4)cn3)CC2)cc1C(F)(F)F (stereo partly drawn) [Example 38]"
  obs.value: "97%"
- compound: "C[C@@H]1CN(CC2CCN(c3ccc4c(c3)C(=O)N(C3CCC(=O)NC3=O)C4=O)CC2)CCN1CC1CCN(c2ccc(NC(=O)C3CCN(c4ccc(C#N)c(C(F)(F)F)c4)CC3)nc2)CC1 (stereo partly drawn) [Example 23]"
  obs.value: "97%"
- compound: "N#Cc1ccc(N2CCC(F)(C(=O)Nc3ccc(N4CCC(CN5CCN(C6CCN(c7ccc8c(c7)C(=O)N(C7CCC(=O)NC7=O)C8=O)CC6)CC5)CC4)cn3)CC2)cc1C(F)(F)F (stereo not drawn) [Example 72]"
  obs.value: "97%"
- compound: "N#Cc1ccc(N2CCC(C(=O)Nc3ccc(OCCN4CCN(CC5CCN(c6ccc7c(c6)C(=O)N(C6CCC(=O)NC6=O)C7=O)CC5)CC4)cn3)CC2)cc1C(F)(F)F (stereo not drawn) [Example 168]"
  obs.value: "99%"
- compound: "N#Cc1ccc(N2CCC(C(=O)Nc3ccc(N4CCC(OCCN5CCN(c6ccc7c(c6)C(=O)N(C6CCC(=O)NC6=O)C7=O)CC5)CC4)cn3)CC2)cc1C(F)(F)F (stereo not drawn) [Example 150]"
  obs.value: "99%"
- compound: "N#Cc1ccc(N2CCC(C(=O)Nc3ccc(CN4CCC(CN5CCN(c6ccc7c(c6)C(=O)N(C6CCC(=O)NC6=O)C7=O)CC5)CC4)cn3)CC2)cc1C(F)(F)F (stereo not drawn) [Example 161]"
  obs.value: "86%"

###

inhibition at 0.01 µM reference
target.system: Androgen Receptor (AR) protein (Homo sapiens, UniProt P10275, T878A)
Construct: endogenous in cells; host or cells: LNCaP
run.description: Androgen Receptor (AR) protein degradation assay in LNCaP cells, western blotting
Assay type: cell-based
measurement.context: 20 h, 0.01 μM compound

- compound: "N#Cc1ccc(N2CCC(C(=O)Nc3ccc(N4CCC(CN5CCN(C[C@H]6CCN(c7cc8c(cc7F)C(=O)N(C7CCC(=O)NC7=O)C8=O)C6)CC5)CC4)cn3)CC2)cc1C(F)(F)F (stereo partly drawn)"
  inhibition at 0.01 µM (%): 42
- compound: "N#Cc1ccc(N2CCC(C(=O)Nc3ccc(OCC4CN(CC5CCN(c6ccc7c(c6)C(=O)N(C6CCC(=O)NC6=O)C7=O)CC5)C4)cn3)CC2)cc1C(F)(F)F (stereo not drawn)"
  inhibition at 0.01 µM (%): 85
- compound: "N#Cc1ccc(N2CCC(C(=O)Nc3ccc(N4CCC(CCN5CCN(c6cccc7c6C(=O)N(C6CCC(=O)NC6=O)C7=O)CC5)CC4)cn3)CC2)cc1C(F)(F)F (stereo not drawn)"
  inhibition at 0.01 µM (%): -11
- compound: "N#Cc1ncc(N2CCC(C(=O)Nc3ccc(N4CCC(CN5CCN(CC6CCN(c7ccc8c(c7)CN(C7CCC(=O)NC7=O)C8=O)CC6)CC5)CC4)cn3)CC2)cc1C(F)(F)F (stereo not drawn)"
  inhibition at 0.01 µM (%): 20
- compound: "N#Cc1ccc(N2CCC(C(=O)Nc3ccc(N4CCC5(CC4)CN(CC4CCN(c6ccc7c(c6)C(=O)N(C6CCC(=O)NC6=O)C7=O)CC4)C5)cn3)CC2)cc1C(F)(F)F (stereo not drawn)"
  inhibition at 0.01 µM (%): 34
- compound: "N#Cc1ccc(N2CCC(C(=O)Nc3ccc(N4CCC(CN5CCN(C6CCN(c7cccc8c7C(=O)N(C7CCC(=O)NC7=O)C8=O)CC6)CC5)CC4)cn3)CC2)cc1C(F)(F)F (stereo not drawn)"
  inhibition at 0.01 µM (%): 36
- compound: "N#Cc1ccc(N2CCC(C(=O)Nc3ccc(N4CCC(CCN5CCN(c6ccc7c(c6)C(=O)N(C6CCC(=O)NC6=O)C7=O)CC5)CC4)cn3)CC2)cc1C(F)(F)F (stereo not drawn)"
  inhibition at 0.01 µM (%): 65
- compound: "N#Cc1ccc(N2CCC(C(=O)Nc3ccc(N4CCC(CN5CCN(C(=O)CNc6ccc7c(c6)C(=O)N(C6CCC(=O)NC6=O)C7=O)CC5)CC4)cn3)CC2)cc1C(F)(F)F (stereo not drawn)"
  inhibition at 0.01 µM (%): 82
- compound: "N#Cc1ccc(N2CCC(C(=O)Nc3ccc(N4CCC(O)(CCN5CCN(c6ccc7c(c6)C(=O)N(C6CCC(=O)NC6=O)C7=O)CC5)CC4)cn3)CC2)cc1C(F)(F)F (stereo not drawn)"
  inhibition at 0.01 µM (%): 56
- compound: "N#Cc1ccc(N2CCC(C(=O)Nc3ccc(OCC4CCN(CC5CCN(c6cc7c(cc6F)C(=O)N(C6CCC(=O)NC6=O)C7=O)CC5)CC4)cn3)CC2)cc1C(F)(F)F (stereo not drawn)"
  inhibition at 0.01 µM (%): 75
- compound: "N#Cc1ccc(N2CCC(C(=O)Nc3ccc(N4CCC(CN5CCC(CN6CCN(c7ccc8c(c7)C(=O)N(C7CCC(=O)NC7=O)C8=O)CC6)CC5)CC4)cn3)CC2)cc1C(F)(F)F (stereo not drawn)"
  inhibition at 0.01 µM (%): 44
- compound: "N#Cc1ccc(N2CCC(C(=O)Nc3ccc(N4CCC(CN5CCN(CC6CCN(c7ccc8c(c7)C(=O)N(C7CCC(=O)NC7=O)C8=O)CC6)CC5)CC4)cn3)CC2)cc1C(F)(F)F (stereo not drawn)"
  inhibition at 0.01 µM (%): 83
- compound: "N#Cc1ccc(N2CCC(C(=O)Nc3ncc(N4CCC(CN5CCN(CC6CCN(c7ccc8c(c7)C(=O)N(C7CCC(=O)NC7=O)C8=O)CC6)CC5)CC4)cn3)CC2)cc1C(F)(F)F (stereo not drawn)"
  inhibition at 0.01 µM (%): 0
- compound: "N#Cc1ccc(N2CCC(C(=O)Nc3ccc(N4CC(CN5CCC(CN6CCN(c7ccc8c(c7)C(=O)N(C7CCC(=O)NC7=O)C8=O)CC6)CC5)C4)cn3)CC2)cc1C(F)(F)F (stereo not drawn)"
  inhibition at 0.01 µM (%): -11
- compound: "N#Cc1ccc(N2CCC(C(=O)Nc3ccc(N4CC[C@H](CN5CC6(CCN(c7ccc8c(c7)C(=O)N(C7CCC(=O)NC7=O)C8=O)CC6)C5)C4)cn3)CC2)cc1C(F)(F)F (stereo partly drawn)"
  inhibition at 0.01 µM (%): 69

Origin of measurements: patent US12122763B2
